- Test system: UACC-257
- experimental protocol: NCI tumour cell line growth inhibition, 48 h
Active and inactive are the calls of the source. No stated cut-off is given here; in the data, active = GI50 up to about 1.1 µM and inactive = higher.
Kindly state GI50 for each of the entries shown.

State the recorded GI50 for this entry: COc1ccc(CC(N)=O)cc1OC
703 µM (inactive)

Consider next the compound O=C1C2CN(Cc3ccccc3)CC1CN(CC1CC1)C2 in the same way.
> 100 µM (inactive)

Consider next the compound C/C1=C/C2=CC(C)C[C@@H]2C(=O)[C@]2(C)C(=O)CC(C)(C)[C@H]2CC1=O (stereo partly specified) in the same way.
> 50 µM (inactive)

Consider next the compound CCCCCCCCCCCCCCCC(=O)OCC(C[As](=O)(O)O)OC(=O)CCCCCCCCCCCCCCC (stereo unspecified) in the same way.
> 100 µM (inactive)

Consider next the compound COc1ccc(C2OC(N)=C(C#N)C3=C2CCCC3C)cc1OC (stereo unspecified) in the same way.
> 100 µM (inactive)

Consider next the compound OCCCCCNc1cc(O)nc(O)n1 in the same way.
> 100 µM (inactive)

Consider next the compound O=C1OC2(OC2c2ccccc2)c2ccccc21 (stereo unspecified) in the same way.
> 100 µM (inactive)

Consider next the compound Cc1cc(C)c2c(=N)c3ccccc3n(CCCCCCn3c4ccccc4c(=N)c4c(C)cc(C)nc43)c2n1 in the same way.
1.64 µM (inactive)

Consider next the compound O=C1C[C@@H](c2ccccc2)NCCCCN(O)CCCN1 in the same way.
> 100 µM (inactive)

Consider next the compound Cc1cc(/N=C2\C=C(Nc3cc(C)on3)C(=O)c3ccccc32)no1 in the same way.
13.9 µM (inactive)

Consider next the compound Cn1c(-c2cccs2)cc(-c2cccs2)c1-c1cccs1 in the same way.
16.5 µM (inactive)

Consider next the compound OC1(c2ccc(Cl)cc2)c2ccc(CN3CCCC3)cc2C2=NCCN21 (stereo unspecified) in the same way.
12.5 µM (inactive)

Consider next the compound Nc1cc2ncnc(Nc3cccc(Br)c3)c2cn1 in the same way.
39.9 µM (inactive)

Consider next the compound O=C(NCc1ccccc1)c1cc2ccc(O)c(O)c2cn1 in the same way.
15.6 µM (inactive)

Consider next the compound COc1ccc(/C=N/NS(=O)(=O)c2ccccc2)cc1 in the same way.
> 100 µM (inactive)

Consider next the compound COc1ccc(-c2c(C(C)=O)c(-c3ccccc3)n(C3OC(COC(C)=O)C(OC(C)=O)C(OC(C)=O)C3OC(C)=O)c(=S)c2C#N)cc1 (stereo unspecified) in the same way.
> 100 µM (inactive)

Consider next the compound NNC(=O)c1ccccc1NC(=O)/C(=C/c1ccccc1O)NC(=O)c1ccccc1 in the same way.
> 100 µM (inactive)

Consider next the compound O=C(c1cccc(C(=O)c2ccc3c4c(cccc24)C(=O)N(c2ccccc2)C3=O)c1)c1ccc2c3c(cccc13)C(=O)N(c1ccccc1)C2=O in the same way.
72.8 µM (inactive)

Consider next the compound COC(=O)C(Cc1cc(OC)c(OC)c(OC)c1)(NC(=O)c1ccccc1)P(=O)(OC)OC (stereo unspecified) in the same way.
> 100 µM (inactive)

Consider next the compound CCOC(=O)c1cc(C2(O)CCN(Cc3ccccc3)C2=O)c(-c2cc(C)no2)[nH]1 (stereo unspecified) in the same way.
75.9 µM (inactive)

Consider next the compound COCOC1/C=C/CCCCC(=O)C(C)C#CC1 (stereo unspecified) in the same way.
5.65 µM (inactive)

Consider next the compound CC(C)(C)OC(=O)N1CC(CCl)c2ccc(O)cc21 (stereo unspecified) in the same way.
2.01 µM (inactive)

Consider next the compound O=[N+]([O-])c1cccc2c1[nH]c1c(-c3ccccc3)nccc12 in the same way.
1.94 µM (inactive)

Consider next the compound COc1ccc(/C=c2/[nH]c(=O)/c(=C\c3ccc(OCc4ccccc4)cn3)[nH]c2=O)cc1 in the same way.
> 100 µM (inactive)

Consider next the compound CCc1cccc(C)c1NC(=O)C1=C(C)NC(C)=C(C(=O)Nc2c(C)cccc2CC)C1c1ccc2c(c1)OCO2 in the same way.
18.5 µM (inactive)

Consider next the compound O=C1c2c(Br)sc(Br)c2[C@H]2OC(=S)N[C@@H]12 in the same way.
7.08 µM (inactive)

Consider next the compound CN1C(=O)C2C(C1=O)C1(O)c3ccccc3C2(N)c2ccccc21 (stereo unspecified) in the same way.
> 100 µM (inactive)

Consider next the compound NS(=O)(=O)c1cc(S(N)(=O)=O)c(NC(=O)N(c2ccccc2)c2ccccc2)c(Cl)c1Cl in the same way.
10.4 µM (inactive)

Consider next the compound CCOC(=O)C(C#N)(Cc1c[nH]c2ccccc12)NC(C)=O (stereo unspecified) in the same way.
> 100 µM (inactive)

Consider next the compound O=C1CC(O)c2c1csc2Br (stereo unspecified) in the same way.
10.7 µM (inactive)

Consider next the compound Cc1cccc2c1CC1(Cc3ccccc3C1=O)C2=O (stereo unspecified) in the same way.
> 100 µM (inactive)

Consider next the compound CC(=O)N1c2ccccc2C(C)(C)OC1C(Cl)(Cl)Cl (stereo unspecified) in the same way.
26.5 µM (inactive)

Consider next the compound Nc1nc2c(ncn2CCOC(c2ccccc2)P(=O)(O)O)c(=O)[nH]1 (stereo unspecified) in the same way.
> 100 µM (inactive)

Consider next the compound NNC(=O)Cc1cccnc1 in the same way.
> 100 µM (inactive)

Consider next the compound S=C(N/N=C(/c1ccccc1)c1ccccn1)Nc1ccccc1Cl in the same way.
< 0.01 µM (active)

Consider next the compound CCOC(=O)NC(OCCN(C)C)(C(F)(F)F)C(F)(F)F in the same way.
> 100 µM (inactive)

---

- Test system: DU-145
- experimental protocol: NCI tumour cell line growth inhibition, 48 h
Active and inactive are the calls of the source. No stated cut-off is given here; in the data, active = GI50 up to about 1.1 µM and inactive = higher.
outcome measure: GI50

State the recorded GI50 for this entry: CC1(c2cccc(C3CCC4(C=CC3=O)OCCO4)c2)OCCO1 (stereo not given)
17.9 µM (inactive)

Consider next the compound ClCCN(CCCl)c1ccc(CNCCCNCc2ccc(N(CCCl)CCCl)cc2)cc1 in the same way.
2.37 µM (inactive)

Consider next the compound Nc1ccc(S(=O)(=O)Nc2nc3ccccc3nc2N2CCCCC2)cc1 in the same way.
> 100 µM (inactive)

Consider next the compound O=C(/C=C/c1ccc(O)c(O)c1)OCCc1ccc2ccccc2c1 in the same way.
11.9 µM (inactive)

Consider next the compound Cc1c(OCc2cccc3ccccc23)ccc2c(O)cc(=S)oc12 in the same way.
36.2 µM (inactive)

---

Assay system HCT-15; read-out recorded as GI50.

State the recorded GI50 for this entry: Cc1nc2cccc(F)c2c(=O)n1-c1nnc(C(F)(F)F)s1
> 10 µM

Consider next the compound C=C(Cl)/C(=C/Cl)CCC(Br)C(C)(C)Cl.C=C(Cl)/C(=C\Cl)CCC(Br)C(C)(C)Cl (centres undefined) in the same way.
> 10 µM

Consider next the compound C/C(CC(O)(C(F)(F)F)C(F)(F)F)=N\NC(N)=S in the same way.
> 10 µM

Consider next the compound C[C@@H]1CC[C@@H]2[C@@H](C1)O[C@@H]([C@@H](C)OCc1ccccc1)SC2(C)C in the same way.
19.5 µM

---

- Tested on: M14
- experimental protocol: NCI tumour cell line growth inhibition, 48 h
Activity calls are given as the source filed them. No stated cut-off is given here; in the data, active = GI50 up to about 1.1 µM and inactive = higher.
Kindly state GI50 for each of the entries shown.

State the recorded GI50 for this entry: CC(=O)N1c2ccccc2C(C)(C)OC1C(Cl)(Cl)Cl (stereo not drawn)
34 µM (inactive)

Consider next the compound O=c1[nH]c2nc[nH]c2c(=O)n1C1CCCCC1 in the same way.
> 100 µM (inactive)

Consider next the compound CC1(c2cccc(C3CCC4(C=CC3=O)OCCO4)c2)OCCO1 (stereo not drawn) in the same way.
6.97 µM (inactive)

Consider next the compound CC(/C=C/C(=O)c1sc(-n2nc(-c3ccccc3)cc2-c2ccccc2)nc1C)=C\c1ccccc1 in the same way.
> 10 µM (inactive)

Consider next the compound O=C(OC[C@H]1C[C@H]2C(=O)OCCC[C@H]2O1)c1ccccc1 in the same way.
> 100 µM (inactive)

Consider next the compound CCCC(O)c1cn(C(NC(=O)c2ccccc2)P(=O)(OCC)OCC)nn1 (stereo not drawn) in the same way.
> 100 µM (inactive)

Consider next the compound C/C(O)=C1\CC2CN3CCc4c([nH]c5ccccc45)C3CC2CC1=O (stereo not drawn) in the same way.
49.4 µM (inactive)

Consider next the compound C/C(CC(O)(C(F)(F)F)C(F)(F)F)=N\NC(N)=S in the same way.
> 10 µM (inactive)

Consider next the compound CC1=C(C(=S)Nc2ccc(Cl)c(C(=O)OC(C)C)c2)SCCO1 in the same way.
18.8 µM (inactive)

Consider next the compound O=C(c1cccc(C(=O)c2ccc3c4c(cccc24)C(=O)N(c2ccccc2)C3=O)c1)c1ccc2c3c(cccc13)C(=O)N(c1ccccc1)C2=O in the same way.
> 100 µM (inactive)

Consider next the compound CN(C(=O)C12C3(C(=O)C(C)(C)C)C4C5(C#N)C3C1(C(=O)C(C)(C)C)C5C42C(=O)C(C)(C)C)C(C)(C)C (stereo not drawn) in the same way.
> 50 µM (inactive)

Consider next the compound C/C1=C/C2=CC(C)C[C@@H]2C(=O)[C@]2(C)C(=O)CC(C)(C)[C@H]2CC1=O (stereo partly drawn) in the same way.
> 50 µM (inactive)

Consider next the compound CC(=O)OCC1OC(n2c(N)c(C#N)c(-c3ccc(C)cc3)c(C#N)c2=S)C(OC(C)=O)C(OC(C)=O)C1OC(C)=O (stereo not drawn) in the same way.
16.4 µM (inactive)

Consider next the compound CCOC(=O)c1cc(C2(O)CCN(Cc3ccccc3)C2=O)c(-c2cc(C)no2)[nH]1 (stereo not drawn) in the same way.
55 µM (inactive)

Consider next the compound COc1ccc(/C=N/NS(=O)(=O)c2ccccc2)cc1 in the same way.
> 100 µM (inactive)

Consider next the compound CCCCNC1CCCCC[C@H]1O (stereo partly drawn) in the same way.
> 100 µM (inactive)

Consider next the compound COc1ccccc1C[C@@H]1OC2(C=CC(=O)CC2SC(=O)c2ccccc2)O[C@H]1Cc1ccccc1OC (stereo partly drawn) in the same way.
1.56 µM (inactive)

Consider next the compound CCC1C(=O)OCc2c1cc1n(c2=O)Cc2ccccc2-1 (stereo not drawn) in the same way.
> 100 µM (inactive)

Source: ChEMBL document CHEMBL1201862
